- target-or-system: HER2 INS YVMA (Homo sapiens, UniProt P04626, INS775YVMA)
- Construct: purchased DPF
- Sequence (P04626 with tags, fused parts or gaps INS775YVMA): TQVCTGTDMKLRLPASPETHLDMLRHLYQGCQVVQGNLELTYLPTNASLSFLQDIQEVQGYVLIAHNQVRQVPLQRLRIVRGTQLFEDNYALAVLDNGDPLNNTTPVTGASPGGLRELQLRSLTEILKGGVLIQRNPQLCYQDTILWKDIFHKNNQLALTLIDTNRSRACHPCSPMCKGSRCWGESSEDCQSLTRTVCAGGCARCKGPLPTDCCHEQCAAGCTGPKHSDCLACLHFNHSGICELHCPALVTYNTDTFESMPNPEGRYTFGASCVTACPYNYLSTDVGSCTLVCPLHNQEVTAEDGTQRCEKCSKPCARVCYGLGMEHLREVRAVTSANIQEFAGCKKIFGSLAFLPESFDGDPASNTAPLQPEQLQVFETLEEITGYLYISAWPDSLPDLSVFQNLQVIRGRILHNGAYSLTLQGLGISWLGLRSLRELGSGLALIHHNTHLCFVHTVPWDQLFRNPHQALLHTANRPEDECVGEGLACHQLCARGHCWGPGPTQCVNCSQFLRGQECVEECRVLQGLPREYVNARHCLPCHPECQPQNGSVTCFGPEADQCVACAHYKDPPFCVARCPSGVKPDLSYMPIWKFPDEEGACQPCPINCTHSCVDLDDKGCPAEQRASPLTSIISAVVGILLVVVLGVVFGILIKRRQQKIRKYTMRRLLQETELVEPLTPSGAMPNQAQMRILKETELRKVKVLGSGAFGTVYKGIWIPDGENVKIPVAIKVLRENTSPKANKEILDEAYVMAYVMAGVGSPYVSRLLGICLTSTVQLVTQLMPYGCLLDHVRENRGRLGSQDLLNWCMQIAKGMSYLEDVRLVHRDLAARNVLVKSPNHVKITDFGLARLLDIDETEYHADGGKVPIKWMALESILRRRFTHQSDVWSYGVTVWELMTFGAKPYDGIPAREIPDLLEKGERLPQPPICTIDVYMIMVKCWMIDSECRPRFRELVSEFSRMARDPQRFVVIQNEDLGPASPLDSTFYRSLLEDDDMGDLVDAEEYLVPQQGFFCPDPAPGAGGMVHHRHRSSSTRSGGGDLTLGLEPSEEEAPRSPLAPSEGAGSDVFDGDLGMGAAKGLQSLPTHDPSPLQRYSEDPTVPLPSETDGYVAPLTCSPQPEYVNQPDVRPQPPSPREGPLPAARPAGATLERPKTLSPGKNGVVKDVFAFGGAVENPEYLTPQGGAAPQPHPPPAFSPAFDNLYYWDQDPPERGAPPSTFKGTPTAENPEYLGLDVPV
- assay-comment: Lance Kinase Activity Assay, HER2 INS YVMA (Her2 Exon 20 INSYVMA Lance)
- Assay type: biochemical
- settings: biochemical Lance assay
For each entry below, report its IC50 value.

Ask: # returns recorded IC50 (system: HER2 INS YVMA (Homo sapiens, UniProt P04626, INS775YVMA)) for C=CC(=O)Nc1cc(-c2c(-c3ccc(N4CCN(C)CC4)cc3)[nH]c3ncc(C(=O)OC)cc23)ccc1C [Example 134, 2,2,2-trifluoroacetate]
Reply: ≤ 0.1 µM

Ask: # returns recorded IC50 (system: HER2 INS YVMA (Homo sapiens, UniProt P04626, INS775YVMA)) for C/C=C/C(=O)Nc1cc(-c2c(-c3ccc(N4CCN(C)CC4)cc3)[nH]c3nccc(Cl)c23)ccc1C [Example 142, 2,2,2-trifluoroacetate]
Reply: 0.5 to 1 µM

Ask: # returns recorded IC50 (system: HER2 INS YVMA (Homo sapiens, UniProt P04626, INS775YVMA)) for C=CC(=O)Nc1cc(-c2c(-c3cccc(C(=O)N4CCC5(CC4)CN(C)C5)c3)[nH]c3nccc(Cl)c23)ccc1C
Reply: ≤ 0.1 µM

Ask: # returns recorded IC50 (system: HER2 INS YVMA (Homo sapiens, UniProt P04626, INS775YVMA)) for C=CC(=O)Nc1cc(-c2c(-c3ccc(N(C)CCN(C)C)cc3)[nH]c3nccc(Cl)c23)ccc1C
Reply: ≤ 0.1 µM

Ask: # returns recorded IC50 (system: HER2 INS YVMA (Homo sapiens, UniProt P04626, INS775YVMA)) for C=CC(=O)Nc1cc(-c2c(-c3ccc(N4CCN(C)CC4)cc3)[nH]c3ncc(CC)cc23)ccc1C [Example 191, 2,2,2-trifluoroacetate]
Reply: ≤ 0.1 µM

Ask: # returns recorded IC50 (system: HER2 INS YVMA (Homo sapiens, UniProt P04626, INS775YVMA)) for C=CC(=O)Nc1cc(-c2c(-c3cccc(N4CCN(C(C)=O)CC4)c3)[nH]c3ncc(C(=O)OC(C)C)cc23)ccc1C
Reply: 1 to 10 µM

Ask: # returns recorded IC50 (system: HER2 INS YVMA (Homo sapiens, UniProt P04626, INS775YVMA)) for C=CC(=O)N1CCCc2ccc(-c3c(-c4ccc(CN5CCN(C)CC5)nc4)[nH]c4nccc(Cl)c34)cc21
Reply: ≤ 0.1 µM

Ask: # returns recorded IC50 (system: HER2 INS YVMA (Homo sapiens, UniProt P04626, INS775YVMA)) for C=CC(=O)Nc1cc(-c2c(-c3ccc(N4CCN(C)CC4)cc3)[nH]c3nccc(Cl)c23)cc(C)c1C [Example 150, 2,2,2-trifluoroacetate]
Reply: ≤ 0.1 µM

Ask: # returns recorded IC50 (system: HER2 INS YVMA (Homo sapiens, UniProt P04626, INS775YVMA)) for C=CC(=O)N1CCOc2ccc(-c3c(-c4cccc(OCCN5CCCC5)c4)[nH]c4nccc(Cl)c34)cc21
Reply: ≤ 0.1 µM

Ask: # returns recorded IC50 (system: HER2 INS YVMA (Homo sapiens, UniProt P04626, INS775YVMA)) for C=CC(=O)N1CCCc2ccc(-c3c(-c4ccc(N5CCN(C)CC5)nc4)[nH]c4nccc(Cl)c34)cc21
Reply: 0.1 to 0.5 µM

Ask: # returns recorded IC50 (system: HER2 INS YVMA (Homo sapiens, UniProt P04626, INS775YVMA)) for C=CC(=O)Nc1cc(-c2c(-c3ccc(CN4CCN(C)CC4)cc3)[nH]c3ncc(C(=O)OC(C)C)cc23)ccc1C
Reply: ≤ 0.1 µM

Ask: # returns recorded IC50 (system: HER2 INS YVMA (Homo sapiens, UniProt P04626, INS775YVMA)) for C=CC(=O)Nc1cc(-c2c(-c3ccc(CN4CCN(C)CC4)cc3)[nH]c3nccc(OC)c23)ccc1C
Reply: ≤ 0.1 µM

Ask: # returns recorded IC50 (system: HER2 INS YVMA (Homo sapiens, UniProt P04626, INS775YVMA)) for C=CC(=O)Nc1cc(-c2c(-c3cccc(OCCN4CCCC4)c3)[nH]c3ncc(C(=O)OC(C)C)cc23)ccc1C
Reply: ≤ 0.1 µM
